Read-out: Vascular cell adhesion molecule 1 (VCAM1), VCAM1 (gene 7412)
Experiment: BSK_4H_VCAM1: BioMAP Diversity Plus: 4H Assay for Vascular cell adhesion molecule 1 (VCAM1) Biomarker Activity (AID 2283033)
Details: primary human endothelial cells (HUVEC); actives raise or lower the signal
The source made the active and inactive calls. The calls were made as follows: active = hit-call score of the fitted dose curve at least 0.9, where 1 is the maximum; inactive = score below 0.9.
Quantity: AC50

The following compounds have reported results that may help.
{"columns": ["Compound", "AC50"],
 "data": [
  ["Cc1cc(Cl)ccc1OCC(=O)O", "inactive"],
  ["N#CC(CCc1ccc(Cl)cc1)(Cn1cncn1)c1ccccc1 (centres undefined)", "inactive"],
  ["CC1COC(Cn2cncn2)(c2ccc(Oc3ccc(Cl)cc3)cc2Cl)O1 (centres undefined)", "32.2 µM (active)"],
  ["COc1nc(NC(C)C)nc(NC(C)C)n1", "inactive"],
  ["CCNc1nc(Cl)nc(NCC)n1", "inactive"],
  ["Cc1c(F)c(F)c(COC(=O)C2C(/C=C(\\Cl)C(F)(F)F)C2(C)C)c(F)c1F (centres undefined)", "inactive"],
  ["CCCCC(CC)COC(=O)c1ccccc1C(=O)OCC(CC)CCCC (centres undefined)", "inactive"],
  ["C=CCC1=C(C)[C@@H](OC(=O)[C@@H]2[C@@H](C=C(C)C)C2(C)C)CC1=O", "inactive"],
  ["CON(C)C(=O)Nc1ccc(Cl)c(Cl)c1", "inactive"],
  ["CCNc1nc(Cl)nc(NC(C)C)n1", "inactive"]
]}

Prompt: State the recorded AC50 for this entry: "Oc1ccccc1-c1ccccc1"
Completion: inactive

Prompt: State the recorded AC50 for this entry: "O=C(O)COc1nc(Cl)c(Cl)cc1Cl"
Completion: inactive

Prompt: State the recorded AC50 for this entry: "CN(C)C(=S)SSC(=S)N(C)C"
Completion: 29.3 µM (active)

====

Target: human Peripheral-type Benzodiazepine Receptor (PBR), TSPO (gene 706) (UniProt P30536)
Sequence (P30536 whole entry, looked up): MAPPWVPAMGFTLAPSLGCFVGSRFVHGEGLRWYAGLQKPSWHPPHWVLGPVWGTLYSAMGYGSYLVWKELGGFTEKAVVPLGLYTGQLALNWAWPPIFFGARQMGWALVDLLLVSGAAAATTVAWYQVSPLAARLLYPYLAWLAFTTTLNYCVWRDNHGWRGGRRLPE
Test: NVS_MP_hPBR: NovaScreen (NVS) Membrane Protein Assay for human Peripheral-type Benzodiazepine Receptor (PBR) (AID 2283331);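 also: hits reduce radioligand binding relative to DMSO baseline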
Results filed as inconclusive are left out. Calls of active or inactive are those of the source. Rule for the calls: active = hit-call score of the fitted dose curve at least 0.9, where 1 is the maximum; inconclusive = response in the unintended direction; inactive = score below 0.9.
Can you answer with just one of these options? active, inactive

Solved cases below.
{"columns": ["Molecule", "Target Entity", "Classification"],
 "data": [
  ["OC(c1ccc(Cl)cc1)(c1cncnc1)c1ccccc1Cl (centres undefined)", "human Peripheral-type Benzodiazepine Receptor (PBR), TSPO (gene 706) (UniProt P30536)", "inactive"],
  ["Cc1ccc(-c2c(Cl)nc(C#N)n2S(=O)(=O)N(C)C)cc1", "human Peripheral-type Benzodiazepine Receptor (PBR), TSPO (gene 706) (UniProt P30536)", "inactive"],
  ["CCCCOC(=O)c1ccccc1C(=O)OCCCC", "human Peripheral-type Benzodiazepine Receptor (PBR), TSPO (gene 706) (UniProt P30536)", "active"]
]}

Then there is this molecule:
Prompt: For COP(N)(=O)SC (centres undefined) , what call appears in the results of this test?
Completion: inactive

====

Read-out: Nuclear factor erythroid 2-related factor 2 (Homo sapiens) (UniProt Q16236)
Sequence (Q16236 whole entry, looked up): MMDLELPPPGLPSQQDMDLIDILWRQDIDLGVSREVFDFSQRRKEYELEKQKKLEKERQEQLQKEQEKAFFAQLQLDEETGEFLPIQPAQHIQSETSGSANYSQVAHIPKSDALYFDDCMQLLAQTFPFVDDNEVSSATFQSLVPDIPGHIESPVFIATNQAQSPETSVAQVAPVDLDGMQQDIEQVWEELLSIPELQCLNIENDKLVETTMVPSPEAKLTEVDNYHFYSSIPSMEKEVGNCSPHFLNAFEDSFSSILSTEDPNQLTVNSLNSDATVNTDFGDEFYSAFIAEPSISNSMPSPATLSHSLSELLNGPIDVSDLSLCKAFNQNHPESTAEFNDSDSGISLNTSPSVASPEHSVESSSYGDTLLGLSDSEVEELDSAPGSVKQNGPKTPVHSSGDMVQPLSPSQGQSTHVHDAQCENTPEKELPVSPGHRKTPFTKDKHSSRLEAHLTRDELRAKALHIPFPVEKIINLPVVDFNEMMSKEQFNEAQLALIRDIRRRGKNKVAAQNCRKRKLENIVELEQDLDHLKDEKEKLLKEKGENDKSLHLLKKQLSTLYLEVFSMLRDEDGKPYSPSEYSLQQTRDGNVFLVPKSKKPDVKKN
Test: LTEA_HepaRG_NFE2L2: Life Technologies and Expression Analysis (LTEA) Assay for Nuclear factor erythroid 2-related factor 2 (NFE2L2) Transcription Factor using HepaRG (AID 2283527)
Conditions: mRNA level, 48 h; actives raise or lower the signal
Activity calls are given as the source filed them. How the source made its calls: active means hit-call score of the fitted dose curve at least 0.9, where 1 is the maximum; inactive means score below 0.9.
Quantity: AC50

The following molecules have reported results that may help.
{"columns": ["Molecule", "AC50"],
 "data": [
  ["CNC(=O)ON=CC(C)(C)SC", "inactive"],
  ["CN(C)C(=S)SSC(=S)N(C)C", "inactive"],
  ["CC(C)C1(C)N=C(c2nc3ccccc3cc2C(=O)O)NC1=O (centres undefined)", "inactive"],
  ["COc1ccc(C(c2ccc(OC)cc2)C(Cl)(Cl)Cl)cc1", "12.7 µM (active)"],
  ["Oc1ccccc1-c1ccccc1", "inactive"]
]}

Prompt: State the recorded AC50 for this entry: "CCNc1nc(Cl)nc(NCC)n1"
Completion: inactive

Prompt: State the recorded AC50 for this entry: "CCOP(=S)(OCC)SCn1c(=O)oc2cc(Cl)ccc21"
Completion: inactive
